target entity: Glutamate NMDA receptor; Grin1/Grin2b (Rattus norvegicus, UniProt P35439+Q00960)
Sequence (Q00960 whole entry, other chains not shown): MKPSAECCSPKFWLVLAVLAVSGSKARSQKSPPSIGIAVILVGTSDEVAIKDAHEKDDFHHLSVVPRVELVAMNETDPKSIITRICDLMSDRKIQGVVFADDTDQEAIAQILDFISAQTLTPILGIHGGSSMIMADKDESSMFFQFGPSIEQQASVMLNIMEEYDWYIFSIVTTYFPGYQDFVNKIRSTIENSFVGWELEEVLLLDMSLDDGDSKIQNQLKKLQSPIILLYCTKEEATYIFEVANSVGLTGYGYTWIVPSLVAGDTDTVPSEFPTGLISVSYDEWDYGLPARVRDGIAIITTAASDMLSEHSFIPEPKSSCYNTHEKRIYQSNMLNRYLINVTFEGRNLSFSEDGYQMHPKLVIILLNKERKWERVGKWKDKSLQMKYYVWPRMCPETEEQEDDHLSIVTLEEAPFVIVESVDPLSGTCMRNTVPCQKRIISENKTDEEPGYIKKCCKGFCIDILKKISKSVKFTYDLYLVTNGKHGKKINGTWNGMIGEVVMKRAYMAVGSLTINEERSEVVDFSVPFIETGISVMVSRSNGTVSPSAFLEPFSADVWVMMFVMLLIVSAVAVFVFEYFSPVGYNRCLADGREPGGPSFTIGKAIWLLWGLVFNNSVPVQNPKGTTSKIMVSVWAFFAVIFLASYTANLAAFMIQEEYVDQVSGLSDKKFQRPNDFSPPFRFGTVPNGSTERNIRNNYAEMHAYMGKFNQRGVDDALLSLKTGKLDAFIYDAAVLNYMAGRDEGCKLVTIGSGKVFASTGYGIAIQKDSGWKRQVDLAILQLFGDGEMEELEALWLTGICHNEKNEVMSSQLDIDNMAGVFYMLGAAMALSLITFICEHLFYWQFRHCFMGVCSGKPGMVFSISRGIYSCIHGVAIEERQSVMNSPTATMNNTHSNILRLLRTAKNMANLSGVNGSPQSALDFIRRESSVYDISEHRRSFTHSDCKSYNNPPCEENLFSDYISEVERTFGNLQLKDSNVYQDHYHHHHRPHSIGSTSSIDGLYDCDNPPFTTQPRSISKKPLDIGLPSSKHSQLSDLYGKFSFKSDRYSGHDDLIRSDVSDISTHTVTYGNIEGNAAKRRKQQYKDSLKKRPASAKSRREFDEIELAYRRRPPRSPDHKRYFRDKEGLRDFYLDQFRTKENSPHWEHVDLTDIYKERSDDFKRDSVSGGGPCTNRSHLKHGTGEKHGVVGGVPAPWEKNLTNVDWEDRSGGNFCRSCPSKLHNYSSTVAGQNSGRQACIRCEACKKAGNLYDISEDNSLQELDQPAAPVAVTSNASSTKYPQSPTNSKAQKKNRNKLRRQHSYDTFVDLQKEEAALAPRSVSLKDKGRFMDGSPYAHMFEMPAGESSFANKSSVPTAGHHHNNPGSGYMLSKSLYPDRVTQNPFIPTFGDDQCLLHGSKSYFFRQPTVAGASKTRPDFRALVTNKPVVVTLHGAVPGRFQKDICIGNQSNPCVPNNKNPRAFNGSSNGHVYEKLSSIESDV
measurement notes: Antagonist activity at rat recombinant NR1-NR2B receptor expressed in Xenopus oocytes at holding potential of -40mV by two-electrode voltage-clamp electrophysiology
Format: functional, cell-based, Oocyte
conditions used: read-out: IC50
Label yes (1) when IC50 is strictly below 100 µM; at or above that, label no (0).

structure_as_smiles=COc1ccc2nc(/C=C/c3cccc([N+](=O)[O-])c3)n(-c3ccc(C#N)cc3)c(=O)c2c1 class="no (0)"
structure_as_smiles=Cc1ccc(-n2c(/C=C/c3cccnc3)nc3ccc(I)cc3c2=O)cc1 class="no (0)"
structure_as_smiles=Cc1ccccc1-n1c(/C=C/c2cccnc2)nc2ccc(I)cc2c1=O class="no (0)"
structure_as_smiles=O=C(O)c1ccc(-n2c(/C=C/c3ccccc3[N+](=O)[O-])nc3ccccc3c2=O)cc1 class="yes (1)"
structure_as_smiles=O=c1c2ccccc2nc(/C=C/c2cccc([N+](=O)[O-])c2)n1-c1ccccc1 class="no (0)"
structure_as_smiles=COc1ccccc1/C=C/c1nc2ccccc2c(=O)n1-c1ccc(C(=O)O)cc1 class="yes (1)"
structure_as_smiles=O=C(O)c1ccc(-n2c(/C=C/c3cccc([N+](=O)[O-])c3)nc3ccc(O)cc3c2=O)cc1 class="no (0)"
structure_as_smiles=O=C(O)c1ccc(-n2c(/C=C/c3cccc([N+](=O)[O-])c3)nc3ccccc3c2=O)cc1 class="yes (1)"
structure_as_smiles=COc1ccc2nc(/C=C/c3cccc([N+](=O)[O-])c3)n(-c3ccc(C(=O)O)cc3)c(=O)c2c1 class="no (0)"
structure_as_smiles=O=C(O)c1cccc(-n2c(/C=C/c3ccc([N+](=O)[O-])cc3)nc3ccccc3c2=O)c1 class="no (0)"

Query: For this molecule, is IC50 lower than 100 µM? O=C(O)c1ccc(-n2c(/C=C/c3ccc(OC(F)F)cc3)nc3ccccc3c2=O)cc1
Result: yes (1)

Query: For this molecule, is IC50 lower than 100 µM? Cc1ccc(/C=C/c2nc3ccccc3c(=O)n2-c2ccc(C(=O)O)cc2)cc1
Result: no (0)

Query: For this molecule, is IC50 lower than 100 µM? COc1ccc2nc(/C=C/c3cccc(C(=O)O)c3)n(-c3ccc(C(=O)O)cc3)c(=O)c2c1
Result: no (0)

Query: For this molecule, is IC50 lower than 100 µM? O=C(O)c1ccc(-n2c(/C=C/c3ccccc3)nc3ccc(I)cc3c2=O)cc1
Result: yes (1)

Query: For this molecule, is IC50 lower than 100 µM? O=C(O)c1ccc(-n2c(/C=C/c3cccc([N+](=O)[O-])c3)nc3c(Cl)cccc3c2=O)cc1
Result: no (0)
